# pIC50 per entry
# Target Of Assay: protein-protein interaction between SOS1 and KRAS G12C (Homo sapiens, UniProt P01116, C118S/C51S/C80L/G12C)
# Construct: His6 (N)
# Sequence (P01116 1-169 isoform P01116-2 G12C/C51S/C80L/C118S): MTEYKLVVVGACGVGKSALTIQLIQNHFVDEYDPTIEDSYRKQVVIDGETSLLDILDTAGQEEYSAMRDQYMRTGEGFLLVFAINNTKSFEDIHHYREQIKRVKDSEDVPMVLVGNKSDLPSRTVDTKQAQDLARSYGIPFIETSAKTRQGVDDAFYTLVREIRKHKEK
# Procedure Details: KRAS::SOS1 AlphaScreen binding assay
# Test Parameters: Table 36
pIC50: −log10 of the molar value.
Quantity Name: pIC50

compound="C=CC(=O)N1CCN(c2cc(-c3noc(C4CCCc5sc(N)c(C#N)c54)n3)nc(N3CCN(C)CC3)c2)CC1 (stereo not shown)" measured_result=6.62
compound="C=CC(=O)N1CCN(c2cc(OCCN(C)C)cc(-c3noc(C4(C)CCCc5sc(N)c(C#N)c54)n3)c2)CC1 (stereo not shown)" measured_result=6.60
compound="C=CC(=O)N1CCN(c2cc(-c3noc(C4(C)CCCc5sc(N)c(C#N)c54)n3)nc(N3CCC(N4CCCC4)CC3)c2)CC1 (stereo not shown)" measured_result=7.62
compound="C=CC(=O)N1CCN(c2cc(-c3noc(C4(C)CCCc5sc(N)c(C#N)c54)n3)nc(N3CCC4(CCN(C)CC4)CC3)c2)CC1 (stereo not shown)" measured_result=6.59
compound=C=CC(=O)N1CCN(C2CN(c3cc(-c4noc([C@@]5(C)CCCc6sc(N)c(C#N)c65)n4)nc(N4CCCN(C)C[C@@H]4C)n3)C2)CC1 measured_result=7.08
compound=C=CC(=O)N1CCN(c2cc(-c3noc([C@@]4(C)CCCc5sc(N)c(C#N)c54)n3)nc(OC[C@@H]3CCCN3C)n2)CC1 measured_result=8.52
compound=C=CC(=O)N1CCN(c2cc(-c3noc([C@@]4(C)CCCc5sc(N)c(C#N)c54)n3)nc(OC[C@@H]3C[C@@H]4C[C@@H]4N3C)n2)CC1 measured_result=8.52

###

# Target Of Assay: KRASG12-dependent Ba/F3 cells (Homo sapiens, UniProt P01116, G12C, cells depend on it)
# Sequence (P01116 whole entry G12C): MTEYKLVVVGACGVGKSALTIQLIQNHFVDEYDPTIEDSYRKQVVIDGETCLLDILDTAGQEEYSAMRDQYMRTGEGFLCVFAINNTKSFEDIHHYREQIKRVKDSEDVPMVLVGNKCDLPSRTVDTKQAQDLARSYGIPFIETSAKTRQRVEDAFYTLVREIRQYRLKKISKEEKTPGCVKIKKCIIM
# Procedure Details: Ba/F3 cell model proliferation assay (AlamarBlue, 72 h)
# Assay type: cell-based
# Test Parameters: Ba/F3 cells transduced with KRASG12C, read-out: IC50 Ba/F3 KRASG12C
Quantity Name: GI50 (µM)

compound="C=CC(=O)N1CCCN(c2cc(-c3noc([C@@]4(C)CCCc5sc(N)c(C#N)c54)n3)nc(O[C@@H](C)[C@@H]3CCCN3C)n2)CC1 [Ia-52]" quantity_name=GI50 measured_result=0.0184
compound="C=CC(=O)N1CC(Oc2cc(O[C@@H](C)[C@@H]3CCCN3C)nc(-c3noc([C@@]4(C)CCCc5sc(N)c(C#N)c54)n3)c2)C1 [Ia-3]" quantity_name=GI50 measured_result=0.0003
compound="C=CC(=O)N1CCC(Oc2cc(-c3noc([C@]4(C)CCCc5sc(N)c(C#N)c54)n3)nc(N3CCN(C)C[C@@H]3C)c2)CC1 [Ia-80]" quantity_name=GI50 measured_result=0.559
compound="C=CC(=O)N1C[C@H](C)N(c2cc(-c3noc([C@@]4(C)CCCc5sc(N)c(C#N)c54)n3)nc(O[C@@H](C)[C@@H]3CCCN3C)n2)C[C@H]1C [Ia-133]" quantity_name=GI50 measured_result=0.0777
compound="C=CC(=O)N1CCN(c2cc(-c3noc(C4(C)CCCc5sc(N)c(C#N)c54)n3)nc(N3CCN(C)C[C@@H]3CC)c2)CC1 (stereo partly drawn) [Ia-15]" quantity_name=GI50 measured_result=0.219
compound="COC/C=C/C(=O)N1CCN(c2cc(-c3noc([C@@]4(C)CCCc5sc(N)c(C#N)c54)n3)nc(O[C@@H](C)[C@@H]3CCCN3C)n2)CC1 [Ia-157]" quantity_name=GI50 measured_result=1.52
compound="C=CC(=O)N1CCN(c2cc(-c3noc([C@@]4(C)CCCc5sc(N)c(C#N)c54)n3)nc(N3CCCN(CC4(C)COC4)C[C@@H]3C)n2)CC1 [Ia-41]" quantity_name=GI50 measured_result=0.0102
compound="C=CC(=O)N1CCN(c2cc(-c3noc([C@@]4(C)CCc5sc(N)c(C#N)c54)n3)nc(N[C@@H](C)[C@@H]3CCCN3C)n2)CC1 [Ia-132]" quantity_name=GI50 measured_result=1.31
compound="C=CC(=O)N1CCN(c2cc(-c3noc([C@@]4(C)CCCc5sc(N)c(C#N)c54)n3)nc(OC3CCCC34CCCN4C)n2)CC1 (stereo partly drawn) [Ia-49]" quantity_name=GI50 measured_result=0.026
compound="C=CC(=O)N1CCC2(CC1)CN(c1cc(-c3noc([C@@]4(C)CCCc5sc(N)c(C#N)c54)n3)nc(N3CCCN(CCCOC)C[C@@H]3C)n1)C2 [Ia-92]" quantity_name=GI50 measured_result=0.178
compound="C=CC(=O)N1C2CCC1CN(c1cc(-c3noc([C@@]4(C)CCCc5sc(N)c(C#N)c54)n3)nc(O[C@@H](C)[C@@H]3CCCN3C)n1)C2 [Ia-59]" quantity_name=GI50 measured_result=0.0325
compound="C=CC(=O)N1CCN(c2cc(-c3noc([C@@]4(C)CCCc5sc(N)c(C#N)c54)n3)nc(OC[C@@H]3CCCN3C)n2)CC1 [Ia-47]" quantity_name=GI50 measured_result=0.186
compound="C=CC(=O)N1CC2CN(c3cc(-c4noc([C@@]5(C)CCCc6sc(N)c(C#N)c65)n4)nc(N4CCCN(C)C[C@@H]4C)n3)CC2C1 (stereo partly drawn) [Ia-97]" quantity_name=GI50 measured_result=0.967
compound="C=CC(=O)N1CCN(c2cc(-c3noc(C4(C)CCCc5sc(N)c(C#N)c54)n3)nc(N3CCCN(CCCOC)C[C@@H]3C)c2)CC1 (stereo partly drawn) [Ia-19]" quantity_name=GI50 measured_result=0.0256
compound="C=CC(=O)N1CCN(c2cc(-c3noc([C@@]4(C)CCCc5sc(N)c(C#N)c54)n3)nc(N3CCCN([C@H]4CCOC4)C[C@@H]3C)n2)CC1 [Ia-44]" quantity_name=GI50 measured_result=0.0025
compound="C=CC(=O)N1CC[C@@H](Oc2cc(O[C@@H](C)[C@@H]3CCCN3C)nc(-c3noc([C@@]4(C)CCCc5sc(N)c(C#N)c54)n3)c2)C1 [Ia-81]" quantity_name=GI50 measured_result=0.0019
compound="CC#CC(=O)N1CCN(c2cc(-c3noc([C@@]4(C)CCCc5sc(N)c(C#N)c54)n3)nc(O[C@@H](C)[C@@H]3CCCN3C)n2)CC12CC2 [Ia-166]" quantity_name=GI50 measured_result=0.0134
compound="C=CC(=O)N1CCN(c2cc(-c3noc([C@@]4(C)CCCc5sc(N)c(C#N)c54)n3)nc(N3CCN(C)CC3)c2)CC1 [Ia-116]" quantity_name=GI50 measured_result=0.208
compound="C=CC(=O)N1[C@H](C)CN(c2cc(-c3noc([C@@]4(C)CCCc5sc(N)c(C#N)c54)n3)nc(O[C@@H](C)[C@@H]3CCCN3C)n2)C[C@H]1C [Ia-56]" quantity_name=GI50 measured_result=0.303
compound="COC/C=C/C(=O)N1CCC(Oc2cc(O[C@@H](C)[C@@H]3CCCN3C)nc(-c3noc([C@@]4(C)CCCc5sc(N)c(C#N)c54)n3)c2)CC1 [Ia-159]" quantity_name=GI50 measured_result=0.0162
compound="C=CC(=O)N1CCN(c2cc(-c3noc([C@@]4(C)CCCc5sc(N)c(C#N)c54)n3)nc(O[C@@H](C)[C@@H]3CCCN3C)n2)C[C@@H]1C [Ia-61]" quantity_name=GI50 measured_result=0.0023
compound="C=CC(=O)N1CCN(c2cc(-c3noc([C@@]4(C)CCCc5sc(N)c(C#N)c54)n3)nc(O[C@@H](C)[C@@H]3CCCN3C)n2)CC12CC2 [Ia-57]" quantity_name=GI50 measured_result=0.0059
compound="C=CC(=O)N1C[C@@H]2CN(c3cc(-c4noc([C@@]5(C)CCCc6sc(N)c(C#N)c65)n4)nc(N4CCCN(C)C[C@@H]4C)n3)[C@@H]2C1 [Ia-101]" quantity_name=GI50 measured_result=0.933
compound="C=CC(=O)N(C)CCOc1cc(-c2noc([C@@]3(C)CCCc4sc(N)c(C#N)c43)n2)nc(N2CCCN(C)C[C@@H]2C)n1 [Ia-74]" quantity_name=GI50 measured_result=0.254

###

# Target Of Assay: protein-protein interaction between SOS1 and KRAS G12C (Homo sapiens, UniProt P01116, C118S/C51S/C80L/G12C)
# Construct: His6 (N)
# Procedure Details: KRAS::SOS1 AlphaScreen binding assay
# Test Parameters: Table 36
Reported IC50 values for a set of compounds
Quantity Name: IC50 (nM)

compound="C=CC(=O)N1CCN(c2cc(-c3noc(C4(C)CCCc5sc(N)c(C#N)c54)n3)nc(N3CCN4CCCCC4C3)c2)CC1 (stereo not shown)" measured_result=47
compound="C=CC(=O)N1CCN(c2cc(-c3noc(C4(C)CCCc5sc(N)c(C#N)c54)n3)nc(N3CCN(C4CCC(F)(F)CC4)CC3)c2)CC1 (stereo not shown)" measured_result=406
compound=C=CC(=O)N1CCN(c2cc(-c3noc([C@@]4(C)CCCc5sc(N)c(C#N)c54)n3)nc(N3CCCN(CCOC)C[C@@H]3C)n2)CC1 measured_result=6
compound="C=CC(=O)N1CCN(c2cc(-c3noc(C4(C)CCCc5sc(N)c(C#N)c54)n3)nc(N3CCN(CC)CC3)c2)CC1C (stereo not shown)" measured_result=198
compound="C=CC(=O)N1CCN(c2cc(-c3noc([C@@]4(C)CCCc5sc(N)c(C#N)c54)n3)nc(N3CCC4(CC(O)C4)C3)n2)CC1 (stereo partly shown)" measured_result=391
compound=C=CC(=O)N1CCN(c2cc(O[C@@H]3CCN(C)C3)nc(-c3noc([C@@]4(C)CCCc5sc(N)c(C#N)c54)n3)c2)CC1 measured_result=60
compound=C=CC(=O)N1CCC(Oc2cc(-c3noc([C@@]4(C)CCCc5sc(N)c(C#N)c54)n3)nc(N3CCN(C)C[C@@H]3C)c2)CC1 measured_result=4
compound=C=CC(=O)N1CCC(Oc2cc(-c3noc([C@@]4(C)CCCc5sc(N)c(C#N)c54)n3)nc(N3CCN(C)CC3)c2)CC1 measured_result=49
compound="C=CC(=O)N1CCN(c2cc(-c3noc(C4(C)CC(F)(F)Cc5sc(N)c(C#N)c54)n3)nc(N3CCN(C)CC3)c2)CC1 (stereo not shown)" measured_result=730
compound=C=CC(=O)N1CCN(c2cc(-c3noc([C@@]4(C)CCCc5sc(N)c(C#N)c54)n3)nc(N3CCCN([C@H]4CCOC4)C[C@@H]3C)n2)CC1 measured_result=1.5
compound="C=CC(=O)N1CCN(c2cc(-c3noc(C4(C)CCCc5sc(N)c(C#N)c54)n3)nc(N3CCN(CC4CC4)CC3)c2)CC1 (stereo not shown) [Ia-146]" measured_result=50
compound=C=CC(=O)N1CC[C@H](C)N(c2cc(-c3noc([C@@]4(C)CCCc5sc(N)c(C#N)c54)n3)nc(O[C@@H](C)[C@@H]3CCCN3C)n2)CC1 measured_result=2
compound=C=CC(=O)N1CCC(Oc2cc(O[C@@H](C)[C@@H]3CCCN3C)nc(-c3noc([C@@]4(C)CCCc5sc(N)c(C#N)c54)n3)c2)CC1 measured_result=1.7
compound="C=CC(=O)N1[C@H](C)CN(c2cc(-c3noc(C4(C)CCCc5sc(N)c(C#N)c54)n3)nc(N3CCN(C4CCCC4)CC3)c2)C[C@@H]1C (stereo partly shown)" measured_result=1000
compound=C=CC(=O)N1CC[C@H](Oc2cc(O[C@@H](C)[C@@H]3CCCN3C)nc(-c3noc([C@@]4(C)CCCc5sc(N)c(C#N)c54)n3)c2)C1 measured_result=2
compound=C=CC(=O)N1CCN(c2cc(-c3noc([C@@]4(C)CCCc5sc(N)c(C#N)c54)n3)nc(N3CCCN([C@@H]4CCOC4)C[C@@H]3C)n2)CC1 measured_result=1.7
